Please go through the items and note down their pKi.
# tested.on: BRD4 (BDII_E352-M457) (Homo sapiens, UniProt O60885)
# Construct: proliferation; Protocol
# experiment.description: TR-FRET bromodomain binding assay, second bromodomain of BRD4
# conditions.used: His-tagged BD2, 30 nM Alexa647 probe; TR-FRET protocol A-E given per row
In textbook form, pKi equals minus log to base ten of the concentration in mol/L.

Note pKi for the molecule shown: Cn1cc(-c2cc(S(C)(=O)=O)ccc2OCCC2CC2)c2c(Cl)c[nH]c(=O)c21
7.17

Return pKi (reported value) for this molecule: CCS(=O)(=O)Nc1ccc(Oc2ccc(F)cc2F)c(-c2cn(C)c3c(=O)[nH]c(C(=O)NCCCn4ccnc4)cc23)c1
8.69

Please list pKi recorded for the molecule Cn1cc(-c2cc(CS(=O)(=O)NC3CCCCC3)ccc2Oc2ccc(F)cc2F)c2cc[nH]c(=O)c21
7.09

Give the measured pKi for Cn1cc(-c2cc(CS(C)(=O)=O)cc(C3CC3)c2Nc2ccc(F)cc2F)c2cc[nH]c(=O)c21
7.79

Return reported pKi. Input molecule: CC(C)CCNCc1ccc(Oc2ccc(F)cc2F)c(-c2cn(C)c3c(=O)[nH]ccc23)c1
6.12

For CCS(=O)(=O)Nc1ccc(Oc2ccc(F)cc2F)c(-c2cn(C)c3c(=O)[nH]c(C(=O)NCC4CCOC4)cc23)c1 (centres unmarked) , write its pKi.
8.19

Report pKi, nothing else, for this molecule: Cn1cc(-c2cc(S(C)(=O)=O)ccc2NCC2C[C@@H]3CC[C@H]2C3)c2cc[nH]c(=O)c21 (some centres unmarked)
6.55

Identify the reported pKi for the following entry. COc1ccc(S(C)(=O)=O)cc1-c1cn(C)c2c(=O)[nH]ccc12
6.14

Specify reported pKi for the molecule shown: Cn1cc(-c2cc(S(C)(=O)=O)ccc2OCCC2CCCC2)c2cc[nH]c(=O)c21
6.95

Return pKi for the following molecule: Cn1cc(-c2cc(CN3CCC(C(F)(F)F)CC3)ccc2Oc2ccc(F)cc2F)c2cc[nH]c(=O)c21
5.92

Answer with reported pKi of Cn1cc(-c2cc(NC(=O)c3ccccn3)ccc2Oc2ccc(F)cc2F)c2cc[nH]c(=O)c21
6.84

Quick one: give measured pKi for CCS(=O)(=O)Nc1ccc(Oc2ccc(F)cc2F)c(-c2cn(C)c3c(=O)[nH]c(C(=O)NCCN4CCN(C)CC4)cc23)c1
8.37

Identify the reported pKi for the following entry. Cn1cc(-c2cc(S(C)(=O)=O)ccc2Oc2ccc3ccccc3c2)c2cc[nH]c(=O)c21
7.18

Supply recorded pKi for CCS(=O)(=O)c1ccc(Oc2ccccc2C#N)c(-c2cn(C)c3c(=O)[nH]ccc23)c1 here.
7.34

Answer with the recorded pKi for the molecule listed here: CN(C)C1CCN(Cc2ccc(Oc3ccc(F)cc3F)c(-c3cn(C)c4c(=O)[nH]ccc34)c2)CC1
6.30

Hello, please tell me recorded pKi for this one: Cn1cc(-c2cc(CCl)ccc2Oc2ccc(F)cc2F)c2cc[nH]c(=O)c21
6.68

Note pKi for the molecule shown: Cn1cc(-c2cc(S(C)(=O)=O)ccc2Oc2ccc(F)cc2F)c2c(Cl)c[nH]c(=O)c21
6.74

Give the value of pKi reported for the following: Cc1oncc1S(=O)(=O)NCc1ccc(Oc2ccc(F)cc2F)c(-c2cn(C)c3c(=O)[nH]ccc23)c1
6.28

Return pKi (reported value) for this molecule: Cn1cc(-c2cc(S(C)(=O)=O)ccc2Oc2ccc(C(C)(C)C)cc2)c2cc[nH]c(=O)c21
6.54

Hello, please tell me recorded pKi for this one: Cn1cc(-c2cc(CNS(=O)(=O)c3ccccc3)ccc2Oc2ccc(F)cc2F)c2cc[nH]c(=O)c21
6.31

Please look at this molecule and report its pKi: Cn1cc(-c2cc(NC(=O)c3cc(Cl)ccc3Cl)ccc2Oc2ccc(F)cc2F)c2cc[nH]c(=O)c21
6.82

// Input: CCS(=O)(=O)Nc1ccc(Oc2ccc(F)cc2F)c(-c2cn(C)c3c(=O)[nH]c(CN4CCOCC4)cc23)c1 . Output its pKi only.
7.00
